Assignment: determine reported virus neutralizing test on BHK-21 cells, IC50 for the given binders.
Biological target: FMDV O/Mya/98 146S antigen (Foot-and-mouth disease virus serotype …, UniProt G8JKC2, strain)
Experiment: cell-based or functional assay
Write down the numeric answer in µg/mL and omit the unit.

The binder C4 (antibody, V domains shown) VH: QVQLRESGPSLVKPSQTLFLTCTVSGFSLTSYSVNWVRQTPGKMLECLGGIATSGSTGYNPVLKSRLRITKDNSKSQVSLSVSNVTPEDTATYYCAKWSSRGGYDCGVHSSDYSYLDAWGQGLLVTVSS VL: QAVLTQPSSVSASLGQRVSITCSGSSSNIGRYGATWYQQVPGSGLRTIIYGSSRRPSGVPDRFSGSKSGNTVTLTISSLQPEDEADYFCAAYDISTNAVFGSGTTLTLL showed virus neutralizing test on BHK-21 cells, IC50 equal to 2.86

The binder A35 (antibody, V domains shown) VH: QVQLRESGPSLVKPSQTLSLTCTVSGFSLSSNGVIWVRQAPGKALEWLGGICGGGSTSFNPSLKSRLTITKDNSKNQVSLSVRSVTPEDTATYYCARSCGSYRDAWYDCASDGYRYHNYVDAW VL: QAVLTQPSSVSGSLGQRVSITCSGSNNNIGSYAVGWYQQVPGSGLRTIIYGSTIRPSGVPDRFSGSKSRSTATLTISSLQAEDEADYFCATADYSSSTVVFGSGTTLTVL showed virus neutralizing test on BHK-21 cells, IC50 equal to 1.43

The binder B66 (antibody, V domains shown) VH: QVQLRESGPSLVKPSQTLSLTCTVSGFSLTTYSVNWVRQTPGKALECLGGITSGGNAYYQPSLKSRLSITKDNSKNQVSLSINSATPEDTATYYCGKLSGTGVCEGGCACGHDPHVDAWGQGVLVTVSS VL: QAVLTQPSSVSGSLGQRISITCSGSSNNVGLYNVGWYQQIPGSGLRTIIYAGDRRPSGVPDRFSGSEFGDTATLTISSLQAEDEADYFCVTYDSTISAAVFGSGTTLTVL showed virus neutralizing test on BHK-21 cells, IC50 equal to 3.13
